- experimental_target: MATE1 (Homo sapiens)
- Sequence (Q96FL8 whole entry): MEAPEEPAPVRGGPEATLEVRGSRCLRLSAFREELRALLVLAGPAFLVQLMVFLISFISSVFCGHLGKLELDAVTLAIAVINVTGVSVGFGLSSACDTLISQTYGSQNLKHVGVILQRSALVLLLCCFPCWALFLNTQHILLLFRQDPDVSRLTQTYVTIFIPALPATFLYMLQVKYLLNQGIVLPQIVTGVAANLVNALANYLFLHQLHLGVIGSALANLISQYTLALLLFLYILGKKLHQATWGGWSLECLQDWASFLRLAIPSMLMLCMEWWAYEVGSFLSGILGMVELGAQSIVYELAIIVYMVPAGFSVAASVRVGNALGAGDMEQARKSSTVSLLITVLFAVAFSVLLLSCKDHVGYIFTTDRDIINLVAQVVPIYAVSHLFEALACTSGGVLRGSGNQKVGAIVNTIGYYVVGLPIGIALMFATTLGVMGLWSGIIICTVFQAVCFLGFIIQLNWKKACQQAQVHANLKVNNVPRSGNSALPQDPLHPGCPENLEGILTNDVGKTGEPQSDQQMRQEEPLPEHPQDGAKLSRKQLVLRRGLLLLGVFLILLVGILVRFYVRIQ
- protocol_description: Inhibition of net [14C]-metformin uptake in MDCK-MATE1 cells
- condition_parameters: 50 μM metformin, 5 min, pH 8.0, efavirenz 0.01–50 μM, read-out: IC50, inhibition of net MATE1-mediated [14C]-metformin uptake
parameter_measured: pIC50
Please note pIC50 is a logarithmic value: minus log10 of concentration in mol/L. Answer with that number alone.

Note to self: pIC50 of `O=C1Nc2ccc(Cl)cc2[C@@](C#CC2CC2)(C(F)(F)F)O1` with MATE1 (Homo sapiens) was 5.41

###

- experimental_target: MDR1 (Homo sapiens)
- Sequence (P08183 whole entry): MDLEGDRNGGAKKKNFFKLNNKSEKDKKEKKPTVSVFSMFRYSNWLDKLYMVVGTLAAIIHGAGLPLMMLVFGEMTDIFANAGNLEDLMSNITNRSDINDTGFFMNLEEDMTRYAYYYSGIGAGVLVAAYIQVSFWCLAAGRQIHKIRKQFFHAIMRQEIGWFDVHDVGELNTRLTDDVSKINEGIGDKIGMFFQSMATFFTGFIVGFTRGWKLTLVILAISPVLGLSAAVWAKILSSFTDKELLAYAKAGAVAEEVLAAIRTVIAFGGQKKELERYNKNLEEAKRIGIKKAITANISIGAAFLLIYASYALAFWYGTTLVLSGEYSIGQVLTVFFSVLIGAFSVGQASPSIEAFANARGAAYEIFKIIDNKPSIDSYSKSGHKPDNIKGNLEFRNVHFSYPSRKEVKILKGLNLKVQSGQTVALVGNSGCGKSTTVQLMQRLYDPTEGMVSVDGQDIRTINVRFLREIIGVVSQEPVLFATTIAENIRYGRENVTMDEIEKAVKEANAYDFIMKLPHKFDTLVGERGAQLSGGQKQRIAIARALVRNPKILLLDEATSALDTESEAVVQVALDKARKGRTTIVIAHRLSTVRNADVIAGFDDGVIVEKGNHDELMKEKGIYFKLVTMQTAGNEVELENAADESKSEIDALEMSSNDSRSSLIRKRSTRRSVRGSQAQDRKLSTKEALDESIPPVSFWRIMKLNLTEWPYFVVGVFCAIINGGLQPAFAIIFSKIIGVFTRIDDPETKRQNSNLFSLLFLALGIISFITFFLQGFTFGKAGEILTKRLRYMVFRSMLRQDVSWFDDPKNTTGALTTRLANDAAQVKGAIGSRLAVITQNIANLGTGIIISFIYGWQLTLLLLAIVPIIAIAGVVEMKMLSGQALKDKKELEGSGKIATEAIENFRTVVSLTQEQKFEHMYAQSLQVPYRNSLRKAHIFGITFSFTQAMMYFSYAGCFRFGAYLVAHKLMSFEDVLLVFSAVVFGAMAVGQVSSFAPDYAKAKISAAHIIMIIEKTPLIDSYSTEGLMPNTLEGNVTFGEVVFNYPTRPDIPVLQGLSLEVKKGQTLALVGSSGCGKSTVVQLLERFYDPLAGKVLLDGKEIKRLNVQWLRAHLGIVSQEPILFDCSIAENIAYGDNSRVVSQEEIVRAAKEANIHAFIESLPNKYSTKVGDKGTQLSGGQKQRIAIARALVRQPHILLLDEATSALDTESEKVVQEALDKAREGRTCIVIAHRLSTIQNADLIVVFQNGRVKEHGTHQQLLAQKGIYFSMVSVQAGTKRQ
- protocol_description: Hoechst 33342 accumulation assay in MDCK-MDR1 cells
- condition_parameters: MDR1 relative IC50, Hoechst 33342 accumulation, maximal inhibition by efavirenz alone = 100%
parameter_measured: IC50 (µM)
Unit µM implied. Number only.

For reference, reported IC50 for `O=C1Nc2ccc(Cl)cc2[C@@](C#CC2CC2)(C(F)(F)F)O1` stands at 24.4
